The values you see were collected from ChEMBL document CHEMBL1201862.

Test system: HCT-15
Quantity: log10 GI50 (log10 of the value in µM)
Field: value | Transform: log10 | Quantity: GI50 | Unit: µM

- Molecule: "CC(C)(Cl)C(Br)CC/C(=C/CBr)CBr.CC(C)(Cl)C(Br)CC/C(=C\\CBr)CBr (stereo not given)"
  Quantity: "log10 GI50"
  Number: 0.29
- Molecule: "O=C1Nc2ccc(Cl)cc2/C1=C\\c1c(Cl)nc2sccn12"
  Quantity: "log10 GI50"
  Number: 0.43
- Molecule: "COC(=O)/C=C\\C(C#N)(C#N)/N=C/c1sccc1C"
  Quantity: "log10 GI50"
  Number: 0.29
- Molecule: "OC(CC(O)(C(F)(F)F)C(F)(F)F)c1ccc(C(O)CC(O)(C(F)(F)F)C(F)(F)F)cc1 (stereo not given)"
  Quantity: "log10 GI50"
  Number: 1.30
- Molecule: "Cc1cc([N+](=O)[O-])c(C)c2c1[nH]c1ccc(O)cc12"
  Quantity: "log10 GI50"
  Number: 1.70

Form field: reported log10 GI50 of "COc1ccc(/C=C2\C(=O)Nc3ccccc32)cc1OC" 1.72

Now give it for COC(=O)C1=C(O)C(C(=O)OC)[C@]2(O)[C@H](C(=O)OC)[C@H]1C[C@@H](c1ccc(OC)c(OC)c1)[C@H]2C(=O)OC (stereo not given in full) too. 1.15

How about "CN1C=Cc2nccc3cc4c(c1c23)OCO4" ? 0.88

----------
Tested on: HL-60
Assay: NCI tumour cell line growth inhibition, 48 h
Activity calls are given as the source filed them. No stated cut-off is given here; in the data, active = GI50 up to about 1.1 µM and inactive = higher. Square brackets hold non-standard residues; d marks the D form. Peptide text beside a SMILES is read from it. * marks the point of attachment. Boc = CC(C)(C)OC(=O)*; Lac = C[CH](O)C(=O)O; OBn = c1ccc(CO*)cc1
The categories you may choose from are active, inactive

- Compound: "CC(OC(=O)C(Cc1ccccc1)NC(=O)C(Cc1ccccc1)NC(=O)OC(C)(C)C)C(=O)OCc1ccccc1 (stereo not drawn) (Boc-Phe-Phe-[Lac]-OBn; configuration not given here)"
  Label: "inactive"
- Compound: "C(CCCCc1nnc(N2CCCCC2)o1)CCCc1nnc(N2CCCCC2)o1"
  Label: "inactive"
- Compound: "Cc1ccc(-c2sc(-c3ccc(C)cc3)c3c2C2CCC3C2)cc1"
  Label: "inactive"

Assay result, entry Oc1ccc2c(c1)OCC1(O)Cc3cc(O)c(O)cc3C21 (stereo not given) — outcome? inactive

Moving on to "O=[N+]([O-])c1cc2oc(CSc3ccccc3)nc2cc1Cl" inactive

Also need "N#Cc1ccc(Cc2ccccn2)cc1Cl" , thanks. inactive

----------
Test system: NCI-H522
Assay: NCI tumour cell line growth inhibition, 48 h
Active and inactive are the calls of the source. No stated cut-off is given here; in the data, active = GI50 up to about 1.1 µM and inactive = higher.
Respond only with the outcome that fits, drawn from true (1) (active), false (0) (inactive)

# example entries with known answers
- Molecule: "CCOC(=O)C1=C(N2CCCC2)NC(=O)CC1=O"
  Label: "false (0)"
- Molecule: "COC1=CC(=O)C[C@@H](C)[C@]12Oc1c(Cl)c(OC)cc(OC)c1C2=O [GRISEOFULVIN]"
  Label: "false (0)"
- Molecule: "O=c1nc(NC2CCCCO2)ccn1CCO (stereo not drawn)"
  Label: "false (0)"

# input for lookup
Outcome? OC1CCOc2ccccc21 (stereo not drawn) false (0)
